- Tested on: A549
- assay-overview: NCI tumour cell line growth inhibition, 48 h
Activity calls are given as the source filed them. Cut-off read from the data, not from the text of the source: active = GI50 up to about 1.1 µM and inactive = higher.
readout-name: GI50

molecule=COc1ccc(-c2c(C#N)c(-c3ccc(C)cc3)n(NS(=O)(=O)c3ccccc3)c(=O)c2C#N)cc1 reported_result="45.9 µM (inactive)"
molecule=CN/C(=N\n1cnnc1)OC reported_result="> 100 µM (inactive)"
molecule="CC12CC3OC(=O)C1COC14OC5(C2C1=O)C(O)(CCC1C4CC2OC24CC=CC(=O)C14C)C(=O)OC35C (stereo not given)" reported_result="27 µM (inactive)"
molecule=Cc1cc(=O)c2cc(/N=C/c3ccc([N+](=O)[O-])o3)ccc2o1 reported_result="> 100 µM (inactive)"
molecule="COC(=O)CC1N/C(=N\\C#N)N(CCc2c[nH]c3ccccc23)C1=O (stereo not given)" reported_result="> 100 µM (inactive)"
molecule="COC(=O)C1=C(C(=O)OC)C(C(=O)c2ccccc2)N2N=C(c3ccc(Cl)cc3)C=CC12 (stereo not given)" reported_result="31 µM (inactive)"
molecule=Oc1cc(-c2ccc3ccccc3c2)nc2ncccc12 reported_result="4.68 µM (inactive)"
molecule=CCOC(=O)C1=C(Nc2ccccc2)SCC1=O reported_result="> 100 µM (inactive)"
molecule="COc1cc2c(c(O)c1OC)C(O)C1CCC(=O)N1C2c1ccc2c(c1)OCO2 (stereo not given)" reported_result="> 100 µM (inactive)"
molecule=CCn1c(=O)c2ccccc2n2c(=O)c3cc4ccccc4cc3nc12 reported_result="> 100 µM (inactive)"
molecule="O=C1N/C(=N\\N=C\\c2ccccc2)C(c2ccccc2)O1 (stereo not given)" reported_result="45.3 µM (inactive)"
molecule=CCOC(=O)c1cn2c(n1)sc1cc(OC)ccc12 reported_result="7.38 µM (inactive)"
molecule=CCN(CC)CCCNc1ccc2nnn3c4ccc(O)cc4c(=O)c1c23 reported_result="1.58 µM (inactive)"
molecule=CN(C)CCCNC(=O)c1cc(NC(=O)c2cc(NC(=O)[C@H]3C[C@@H]3C(=O)Nc3cc(C(=O)Nc4cc(C(=O)NCCCN(C)C)n(C)c4)n(C)c3)cn2C)cn1C reported_result="> 100 µM (inactive)"
molecule=CCOc1cccc2c1N[S@@](=O)S2 reported_result="> 100 µM (inactive)"
molecule=CCCCC(=O)Nc1ccc2c(C)cc(-c3ccc(-c4cc(-c5ccc(C)cc5)cc(-c5ccc(-c6cc(C)c7ccc(NC(=O)CCCC)nc7n6)cc5)n4)cc3)nc2n1 reported_result="> 100 µM (inactive)"
molecule=CN(CCCNC(=O)c1cn(C)c2c1ccc1cc(Cl)ccc12)CCCNC(=O)c1cn(C)c2c1ccc1cc(Cl)ccc12 reported_result="2.06 µM (inactive)"
molecule=COc1cccc2c1CCc1c(-c3ccc(F)cc3)cc(-c3ccc4ccccc4n3)nc1-2 reported_result="> 100 µM (inactive)"
molecule="CC(=O)OC1COC(Nc2ccc(C(C)=O)cc2)C(OC(C)=O)C1OC(C)=O (stereo not given)" reported_result="> 100 µM (inactive)"
molecule="CCN(CC)c1ccc(/C=C/C2=NN(c3cccc(S(=O)(=O)O)c3)C3(C2)SCC(=O)N3c2nc3ccccc3s2)cc1 (stereo not given)" reported_result="32.7 µM (inactive)"

---

- Test system: CAKI-1
- assay-overview: NCI tumour cell line growth inhibition, 48 h
Calls of active or inactive are those of the source. Rule as the data show it: active = GI50 up to about 1.1 µM and inactive = higher.
Quick list: GI50 per entry.
readout-name: GI50

compound="COC(=O)C(/C(=N/NC(N)=O)C(=O)Nc1ccc(C)cc1)c1nc2ccc([N+](=O)[O-])cc2nc1O (stereo not given)" readout_name=GI50 reported_result="> 100 µM (inactive)"
compound=CCCn1cnc2c(/N=N/O)ncnc21 readout_name=GI50 reported_result="> 100 µM (inactive)"
compound="CS(=O)(=O)N1CC(CCl)c2ccc([N+](=O)[O-])cc21 (stereo not given)" readout_name=GI50 reported_result="> 100 µM (inactive)"
compound="O=c1[nH]c(=O)n(C2OC3COC2C3O)cc1F (stereo not given)" readout_name=GI50 reported_result="> 100 µM (inactive)"
compound=NC1CCCCC1.O=P(O)(O)C1(P(=O)(O)O)CC1 readout_name=GI50 reported_result="> 100 µM (inactive)"
compound=Cc1ccc(Nc2nc(O)c3[nH]cnc3n2)cc1CO readout_name=GI50 reported_result="15.2 µM (inactive)"
compound="CCCCCn1cc2c3c(cccc31)C1C=C(C)CN(C)[C@@H]1C2.Cc1ccc(C(=O)OC(C(=O)O)C(OC(=O)c2ccc(C)cc2)C(=O)O)cc1 (stereo not given)" readout_name=GI50 reported_result="5.69 µM (inactive)"
compound="CC(=O)OCC1OC(OCCCOP(=O)(OCCC#N)OCC2OC(n3cnc4c(N)ncnc43)C(OC(=O)c3ccccc3)C2OC(=O)c2ccccc2)C(OC(C)=O)C(OC(C)=O)C1OC(C)=O (stereo not given)" readout_name=GI50 reported_result="> 100 µM (inactive)"
compound="CC1(C)C2CCC1(C)C(NC(=O)CCN1CCOCC1)C2 (stereo not given)" readout_name=GI50 reported_result="> 100 µM (inactive)"
compound=C=C1C(=O)O[C@H]2C/C(C)=C/CC/C(C)=C/CC[C@@](C)(O)[C@@H](I)C[C@@H]12 readout_name=GI50 reported_result="8.93 µM (inactive)"
compound=COc1ccc(-c2cc(-c3ccccc3)nc(/N=C\c3ccccc3)n2)c(O)c1 readout_name=GI50 reported_result="3.02 µM (inactive)"
compound=N#[N+]c1ccccc1Sc1ccc(Cl)cc1 readout_name=GI50 reported_result="> 100 µM (inactive)"
compound="CCCCCCCCCC(=O)OCC1OC(n2cc(F)c(=O)[nH]c2=O)C(N)C(OC(=O)CCCCCCCCC)C1O (stereo not given)" readout_name=GI50 reported_result="38.2 µM (inactive)"
compound="CCOP(=O)(OCC)OC1c2[nH]cc(C(=O)OCc3ccccc3)c2-c2cc(C(=O)OC)[nH]c2C1OC (stereo not given)" readout_name=GI50 reported_result="20.2 µM (inactive)"
compound=O=c1c2cc(S(=O)(=O)O)ccc2nc(COc2ccc(Oc3ccc(Cl)cc3Cl)cc2)n1C(=S)Nc1ccc(Cl)cc1 readout_name=GI50 reported_result="27.9 µM (inactive)"
compound=Cc1ccc(-c2cc(N)n(-c3nc4c(c(=O)n(C)c(=O)n4C)n3C)n2)cc1 readout_name=GI50 reported_result="> 100 µM (inactive)"
compound=CCCC(=O)Nc1cc([N+](=O)[O-])c([N+](=O)[O-])cc1OC readout_name=GI50 reported_result="16 µM (inactive)"
compound=O=c1c(C(c2ccccc2)c2c(O)oc3cc(O)ccc3c2=O)c(O)oc2cc(O)ccc12 readout_name=GI50 reported_result="> 100 µM (inactive)"
compound=COc1cc(OC)c(-n2[nH]c(=O)n(C)c2=O)c(OC)c1 readout_name=GI50 reported_result="> 100 µM (inactive)"
compound=CC(=O)NC1=C(NCC(C)C)C(=O)c2ccccc2C1=O readout_name=GI50 reported_result="16.7 µM (inactive)"

Data credit: ChEMBL document CHEMBL1201862
